Where do the numbers come from? From patent US20210045385A1.

# Test system: Italian ryegrass (Lolium multiflorum)
# experimental protocol: Test A preemergence, visual plant response rating
# Type: in vivo
# measurement setup: 500 g ai/ha Preemergence; approx. 10 days
Please mark Yes if the recorded Ryegrass, Italian plant response rating (0 to 100 scale) is equal to or greater than 40, and No if it falls below.

> print(dat)
                                   compound  cat
1  CCn1nc(C)c(O)c(C(=NOC)c2cccc(Cl)c2)c1=O (mixture of isomers) [Compound 2]  Yes
2  CO/N=C(/c1ccccc1Cl)c1c(O)c(C)nn(C)c1=O [Compound 63]  Yes
3  CON=C(c1c(O)c(C)nn(C)c1=O)c1cccc2cc(F)ccc12 [Compound 119]  Yes
4  CO/N=C(\c1ccsc1C)c1c(O)c(C)nn(C)c1=O [Compound 43]   No
5  CO/N=C(\c1c(C)cccc1F)c1c(O)c(C)nn(C)c1=O [Compound 39]   No
6  CO/N=C(\c1cccc(C(F)(F)F)c1)c1c(O)c(C)nn(C)c1=O [Compound 71]   No
7  C=CCc1ccccc1C(=NOC)c1c(O)c(C)nn(C)c1=O [Compound 121]  Yes
8  CON=C(c1c(O)c(C)nn(C)c1=O)c1ccc(Cl)c2ccccc12 [Compound 40]  Yes

* * *

Below, each entry is listed alongside its reported Corn plant response rating (0 to 100 scale).
# Test system: corn (Zea mays)
# experimental protocol: Test C postemergence, visual plant response rating
# Format: in vivo
# measurement setup: Test C, postemergence, 125 g ai/ha
quantity: Corn plant response rating (0 to 100 scale)

> print(dat)
                                   compound  reading
1  CO/N=C(/c1cc(Cl)cc(Br)c1)c1c(O)c(C)nn(C)c1=O       20
2  C#CCON=C(c1cccc(OCC(F)(F)F)c1)c1c(O)c(C)nn(C)c1=O        0
3  CON=C(c1cc(C)cc(Cl)c1)c1c(O)c(C)nn(C)c1=O       20
4  Cc1nn(C)c(=O)c(C(=NOCC2CC2)c2cc(Cl)cc(Cl)c2Cl)c1O [Compound 182]       30
5  C#CCO/N=C(\c1cc(C)cc(Cl)c1)c1c(O)c(C)nn(C)c1=O       20
6      CON=C(c1csc(C)c1)c1c(O)c(C)nn(C)c1=O        0
7  CC(C)O/N=C(/c1c(O)c(Cl)nn(C)c1=O)c1ccc(F)c2ccccc12       20
8  CO/N=C(/c1cc(F)cc(F)c1C)c1c(O)c(C)nn(C)c1=O        0
9  C#CCO/N=C(/c1ccc(F)c(Cl)c1)c1c(O)c(C)nn(C)c1=O       40

* * *

# Tested on: Italian ryegrass (Lolium multiflorum)
# experimental protocol: Test A preemergence, visual plant response rating
# Assay type: in vivo
# measurement setup: 125 g ai/ha, preemergence; 0 to 100 scale, 0 no effect, 100 complete control
Below, each entry is listed alongside its reported Ryegrass, Italian plant response rating.
quantity: Ryegrass, Italian plant response rating

> print(dat)
                                   molecule  reading
1  CON=C(c1c(OC(C)=O)c(C)nn(C)c1=O)c1cccc2ccccc12 [Compound 120]       10
2  CCO/N=C(/c1c(O)c(C)nn(C)c1=O)c1cc(Br)cc2ccccc12 [Compound 113]       80
3  CON=C(c1ccccc1C1CC1)c1c(O)c(C)nn(C)c1=O [Compound 105]       90
4  CO/N=C(/c1ccccc1F)c1c(O)c(C)nn(C)c1=O [Compound 34]       10
5  CON=C(c1cccc(C)c1)c1c(O)c(Cl)nn(C)c1=O [Compound 128]        0
6  C=CCc1ccccc1C(=NOC)c1c(O)c(C)nn(C)c1=O [Compound 121]       50
7  CCO/N=C(\c1c(O)c(C)nn(C)c1=O)c1cccc2ccccc12 [Compound 79]       30
8  CON=C(c1cccc(C)c1F)c1c(O)c(C)nn(C)c1=O [Compound 70]        0
9  CCO/N=C(/c1c(O)c(C)nn(C)c1=O)c1cccc2ccccc12 [Compound 78]       30

* * *

# Test system: blackgrass (Alopecurus myosuroides)
# experimental protocol: Test A postemergence, visual plant response rating
# Assay type: in vivo
# measurement setup: Postemergence, 125 g ai/ha; 0 to 100 scale (0 no effect, 100 complete control)
quantity: Blackgrass plant response rating

> print(dat)
                                   molecule                          quantity  reading
1  CO/N=C(/c1ccccc1C(C)C)c1c(O)c(C)nn(C)c1=O  Blackgrass plant response rating        0
2   CO/N=C(/c1ccccc1C#N)c1c(O)c(C)nn(C)c1=O  Blackgrass plant response rating        0
3      CO/N=C(/c1ccsc1C)c1c(O)c(C)nn(C)c1=O  Blackgrass plant response rating        0
4   CON=C(c1cc(C)ccc1Cl)c1c(O)c(C)nn(C)c1=O  Blackgrass plant response rating        0
5  CON=C(c1c(OC(C)=O)c(C)nn(C)c1=O)c1cccc2ccccc12 [Compound 48]  Blackgrass plant response rating       70
6  C=CCON=C(c1c(O)c(C)nn(C)c1=O)c1cc(Br)cc2ccccc12  Blackgrass plant response rating       80
7  Cc1nn(C)c(=O)c(/C(=N/OC(C)C)c2ccc(F)c3ccccc23)c1O  Blackgrass plant response rating       80
8   CON=C(c1c(O)c(C)nn(C)c1=O)c1cccc2ccoc12  Blackgrass plant response rating        0

* * *

# Tested on: ragweed (common ragweed, Ambrosia elatior)
# experimental protocol: Test A postemergence, visual plant response rating
# Assay type: in vivo
# measurement setup: 500 g ai/ha, postemergence; 0 is no effect, 100 is complete control
Please mark Criterion met if the recorded Ragweed plant response rating (0 to 100 scale) is equal to or greater than 90, and Criterion not met if it falls below.

> print(dat)
                                    compound                cat
 1  C#CCO/N=C(/c1c(O)c(C)nn(C)c1=O)c1cc(Br)cc2ccccc12      Criterion met
 2  CO/N=C(\c1cccc(C)c1C)c1c(O)c(C)nn(C)c1=O  Criterion not met
 3      CO/N=C(\c1sccc1C)c1c(O)c(C)nn(C)c1=O  Criterion not met
 4      CON=C(c1ccc(C)o1)c1c(O)c(C)nn(C)c1=O  Criterion not met
 5  CON=C(c1c(O)c(C)nn(C)c1=O)c1ccc(F)c2ccccc12      Criterion met
 6  CO/N=C(\c1cccc(C)c1)c1c(O)c(C2CC2)nn(C)c1=O  Criterion not met
 7  CO/N=C(\c1c(O)c(Cl)nn(C)c1=O)c1cccc2ccccc12      Criterion met
 8   CON=C(c1cc(Cl)ccc1C)c1c(O)c(C)nn(C)c1=O  Criterion not met
 9    CCO/N=C(/c1ccccc1C)c1c(O)c(C)nn(C)c1=O  Criterion not met
10  Cc1ccccc1/C(=N/OC(C)C)c1c(O)c(C)nn(C)c1=O  Criterion not met
11  CON=C(c1cccc(Cl)c1)c1c(O)c(C)nn(CC2CC2)c1=O (mixture of isomers)  Criterion not met

* * *

Below, each entry is listed alongside its reported Ryegrass, Italian plant response rating (0 to 100 scale).
# Test system: Italian ryegrass (Lolium multiflorum)
# experimental protocol: Test A preemergence, visual plant response rating
# Type: in vivo
# measurement setup: 500 g ai/ha Preemergence; approx. 10 days
quantity: Ryegrass, Italian plant response rating (0 to 100 scale)

> print(dat)
                                   compound                           study.target  reading
1  C=CCON=C(c1c(O)c(C)nn(C)c1=O)c1cc(Br)cc2ccccc12 [Compound 114]  Italian ryegrass (Lolium multiflorum)      100
2  C#CCO/N=C(\c1c(O)c(C)nn(C)c1=O)c1ccc(F)c2ccccc12 [Compound 108]  Italian ryegrass (Lolium multiflorum)      100
3  CON=C(c1cccc(Cl)c1)c1c(O)c(C)nn(CC2CC2)c1=O (mixture of isomers) [Compound 4]  Italian ryegrass (Lolium multiflorum)       30
4  CON=C(c1c(OC(C)=O)c(C)nn(C)c1=O)c1cccc2ccccc12 [Compound 48]  Italian ryegrass (Lolium multiflorum)       70

* * *

# Test system: pigweed (Amaranthus retroflexus)
# experimental protocol: Test C preemergence, visual plant response rating
# Format: in vivo
# measurement setup: Test C, 31 g ai/ha, 0 is no effect, 100 is complete control
Please mark Y if the recorded Pigweed plant response rating (0 to 100 scale) is equal to or greater than 10, and N if it falls below.

> print(dat)
                               input.smiles  cat
1  CO/N=C(/c1c(O)c(Cl)nn(C)c1=O)c1ccc(F)c2ccccc12    Y
2  CO/N=C(/c1cccc(/C=C/Cl)c1)c1c(O)c(C)nn(C)c1=O    N
3  C#CCO/N=C(\c1cccc(/C=C/Cl)c1)c1c(O)c(C)nn(C)c1=O    N
4  CCCCO/N=C(\c1cc(Cl)cc(Cl)c1Cl)c1c(O)c(C)nn(C)c1=O    N
5  CON=C(c1cc(C)cc(Cl)c1)c1c(O)c(C)nn(C)c1=O    Y
6  CO/N=C(\c1cc(F)cc(C)c1F)c1c(O)c(C)nn(C)c1=O    Y
7  CO/N=C(\c1c(OC(C)=O)c(Cl)nn(C)c1=O)c1cc(Br)cc2ccccc12    Y
8  C#CCO/N=C(\c1cccc(/C=C\Cl)c1)c1c(O)c(C)nn(C)c1=O    N
